Entries annotated with measured Ki
Biological target: C5a Receptor (Homo sapiens)
Construct: 2.5-25 ug/mL of purified PMNL membrane fragments; endogenous in cells
Sequence (P21730 whole entry, the tested form may be a part): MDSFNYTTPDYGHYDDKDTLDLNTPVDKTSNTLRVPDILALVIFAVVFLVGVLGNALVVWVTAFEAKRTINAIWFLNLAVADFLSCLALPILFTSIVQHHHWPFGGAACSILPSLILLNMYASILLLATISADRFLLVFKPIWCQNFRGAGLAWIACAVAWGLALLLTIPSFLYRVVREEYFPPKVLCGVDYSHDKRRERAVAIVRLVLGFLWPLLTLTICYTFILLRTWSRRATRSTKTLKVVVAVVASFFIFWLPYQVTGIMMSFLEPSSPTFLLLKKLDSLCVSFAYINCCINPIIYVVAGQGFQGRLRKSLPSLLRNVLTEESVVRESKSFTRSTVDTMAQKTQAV
Experiment: Anaphylatoxin Receptor Binding Ki Determination (inhibition of 125I-C5a binding to PMNL membrane fragments)
Conditions: 0.03-1 nM 125I-C5a; 2.5-25 ug/mL purified PMNL membrane fragments; filtration; read-out: In vitro C5a Receptor Binding Potency Ki
Numbered stars: 1 amine (or outer) side, 2 acyl side, 3 side chain; on linkers, the order of the positions; unused ones are H or OH. Square brackets hold non-standard residues; d marks the D form. Peptide text beside a SMILES is read from it. X2 = CN(CCCCC(Cc1ccccc1)C(=O)[*:2])[*:1]; NMeF = CN[C@@H](Cc1ccccc1)C(=O)O; Cha = N[C@@H](CC1CCCCC1)C(=O)O; dCha = N[C@H](CC1CCCCC1)C(=O)O; βAla = NCCC(=O)O; Sar = CNCC(=O)O
Reply with just the number (in µM).

molecule | Ki (µM)
CN[C@@H](Cc1ccccc1)C(=O)N[C@@H](CCCCN)C(=O)N(C)CCCCC(Cc1ccccc1)C(=O)N[C@@H](Cc1ccccc1)C(=O)N[C@H](CCCNC(=N)N)C(=O)O (stereo partly drawn) [Example 134] (H-[NMeF]K[X2]F[dR]-OH) | 6.8

Output measured Ki for this item: CN(CC(=O)N[C@H](CC1CCCCC1)C(=O)N[C@@H](CC1CCCCC1)C(=O)N[C@H](CCCNC(=N)N)C(=O)O)C(=O)[C@H](CCCCN)NC(=O)[C@@H](N)Cc1ccccc1 [Example 56] (H-FK[Sar][dCha][Cha][dR]-OH)
0.014

Output measured Ki for this item: C[C@H](NC(=O)[C@H](CCCCN)NC(=O)[C@@H](N)Cc1ccccc1)C(=O)N[C@@H](CC1CCCCC1)C(=O)NCCC(=O)N[C@H](CCCNC(=N)N)C(=O)O [Example 19] (H-FKA[Cha][βAla][dR]-OH)
130

Numbers sourced from patent US5387671A.
